This section presents Ki values reported for D(2) dopamine receptor (Rattus norvegicus) in the literature.

1. O=C(NCCCCN1CCN(c2cccc(Cl)c2Cl)CC1)c1cccc2c1-c1ccccc1C2=O : 89 nM
2. CCCN(CCN1CCN(c2ccc3[nH]ccc3c2)CC1)[C@@H]1CCc2nc(N)sc2C1 : 134 nM
3. CCCN(CCN1CCN(c2ccccc2)CC1)C1CCc2ccc3nc[nH]c3c2C1 (stereo not drawn) : 520 nM
4. O=C1CCc2cc(CCCCN3CCN(c4cccc(Cl)c4Cl)CC3)cc3c2N1CCC3 : 394 nM
5. CCCN(CCN1CCN(c2ccccc2OC)CC1)C1CCc2cc3[nH]c(=S)[nH]c3cc2C1 (stereo not drawn) : 230 nM

Continue with the next molecule.
### Prompt Provide D(2) dopamine receptor (Rattus norvegicus) Ki reading for O=C(NCCCN1CCN(c2cccc(Cl)c2Cl)CC1)c1ccc2c(c1)Cc1ccccc1-2 .
### Response 396 nM

====

This section presents pKi values reported for D(2) dopamine receptor (Rattus norvegicus, UniProt P61169) in the literature.
// scale note: pKi = -log10(conc_M); give the bare number

Please review the following examples before continuing.
1) Cc1cc(=O)oc2c(C)c(OCCCCN3CCC(c4noc5cc(F)ccc45)CC3)ccc12 : 8.28
2) Cc1cc(=O)oc2cc(OCCCCN3CCN(c4ccccn4)CC3)ccc12 : 5.55
3) COc1ccccc1N1CCN(CCCCOc2ccc3c(C)cc(=O)oc3c2C)CC1 : 6.07
4) CCCN(CCN1CCN(c2ccccc2)CC1)C1CCc2ccc(NS(=O)(=O)c3ccc(C(F)(F)F)cc3)cc2C1 (centres undefined) : 7.04
5) COc1cccc(N2CCN(CCCCOc3ccc4c(C)cc(=O)oc4c3)CC2)c1 : 6.81
6) CCCN(CCN1CCN(C(=O)c2c[nH]c3ccccc23)CC1)[C@@H]1CCc2nc(N)sc2C1 : 5.88
7) O=C(NCC#CCN1CCN(c2cccc(Cl)c2Cl)CC1)c1ccccc1 : 5.77
8) CCCN(CCN1CCN(C(=O)c2ccc(-c3ccccc3)cc2)CC1)C1CCc2nc(N)sc2C1 (racemic) : 5.78
9) O=C(NCCCN1CCN(c2cccc(Cl)c2Cl)CC1)c1cccc2c1-c1ccccc1C2=O : 6.82
10) CCCN(CCN1CCN(c2ccc(-c3ccccc3)cc2)CC1)[C@H]1CCc2nc(N)sc2C1 : 6.58

### Prompt Find the measured pKi of COc1ccccc1N1CCN(CCCCOc2ccc3c(C)cc(=O)oc3c2)CC1 and report it.
### Response 8.85

### Prompt Find the measured pKi of CCCN(CCN1CCN(c2ccccc2)CC1)[C@H]1CCc2c(cccc2OS(=O)(=O)c2ccc(OC)cc2)C1 and report it.
### Response 6.30

### Prompt Find the measured pKi of O=C1CC(c2ccccc2)c2ccc(OCCCCN3CCC(c4noc5cc(F)ccc45)CC3)cc2O1 (centres undefined) and report it.
### Response 6.29

### Prompt Find the measured pKi of O=C(CCCN1CCC(c2noc3cc(F)ccc23)CC1)c1cc2c3c(c1F)CCC(=O)N3CC2 and report it.
### Response 7.72

### Prompt Find the measured pKi of CN1CCN2c3c(cccc31)[C@@H]1CN(CCCc3n[nH]c4cc(F)ccc34)CC[C@@H]12 and report it.
### Response 7.57

### Prompt Find the measured pKi of COc1ccccc1N1CCN(CCCCOc2ccc3ccc(=O)oc3c2)CC1 and report it.
### Response 6.25

### Prompt Find the measured pKi of CCCN(CCN1CCN(c2ccc(-c3cccc(O)c3)cc2)CC1)[C@@H]1CCc2nc(N)sc2C1 and report it.
### Response 5.82

### Prompt Find the measured pKi of CCCN(CCCCCCCN(CCC)[C@H]1CCc2c(O)cccc2C1)[C@H]1CCc2c(O)cccc2C1 and report it.
### Response 8.41
